These data points were gathered from ChEMBL document CHEMBL1139381.

# System: Plasmodium falciparum
# Assay Method Text: Antimalarial activity after 48 hrs against chloroquine-resistant asynchronous Plasmodium falciparum K1 infected human A+ erythrocytes by [3H]hypoxanthine uptake
# Format: functional, organism-based
Reported Property: pIC50
Answers are plain numbers, as −log10 of the molar value.

Here is how some compounds turned out for pIC50.
[
  {
    "Compound": "COc1ccc2nccc(NC(c3ccc(CN4CCOCC4)cc3)c3cccc(Cl)c3)c2c1 (racemic)",
    "pIC50": 7.17
  },
  {
    "Compound": "COc1ccc2nccc(NC(c3ccc(Cl)cc3)c3ccc(CN4CCOCC4)cc3)c2c1 (racemic)",
    "pIC50": 7.27
  },
  {
    "Compound": "Clc1cccc(C(Nc2ccnc3cc(Cl)ccc23)c2ccc(CN3CCCC3)cc2)c1 (racemic)",
    "pIC50": 7.80
  },
  {
    "Compound": "COc1ccc2nc3cc(Cl)ccc3c(NC(c3ccc(Cl)cc3)(c3ccc(Cl)cc3)c3ccc(CN4CCCC4)cc3)c2c1",
    "pIC50": 6.70
  },
  {
    "Compound": "COc1ccc2nccc(NC(c3ccc(CN4CCCC4)cc3)c3cccc(Cl)c3)c2c1 (racemic)",
    "pIC50": 7.19
  },
  {
    "Compound": "Clc1cccc(C(Nc2ccnc3cc(Cl)ccc23)c2ccc(CN3CCOCC3)cc2)c1 (racemic)",
    "pIC50": 7.21
  },
  {
    "Compound": "Clc1ccc(C(Nc2ccnc3cc(Cl)ccc23)c2ccc(CN3CCCC3)cc2)cc1 (racemic)",
    "pIC50": 7.85
  },
  {
    "Compound": "Clc1ccc(C(Nc2ccnc3cc(Cl)ccc23)c2ccc(CN3CCOCC3)cc2)cc1 (racemic)",
    "pIC50": 7.68
  }
]

Lab note: each compound below needs its pIC50 filled in.
1. COc1ccc2nccc(NC(c3ccc(Cl)cc3)c3ccc(CN4CCCC4)cc3)c2c1 (racemic)
2. COc1ccc2nc3cc(Cl)ccc3c(NC(c3ccc(Cl)cc3)c3ccc(CN4CCCC4)cc3)c2c1 (racemic)
3. Clc1ccc(C(Nc2ccnc3cc(Cl)ccc23)(c2ccc(Cl)cc2)c2ccc(CN3CCCC3)cc2)cc1

Key:
7.49
7.70
7.55

Noted pIC50 for FC(F)(F)c1ccc2c(NC(c3ccc(Cl)cc3)c3ccc(CN4CCCC4)cc3)ccnc2c1 (racemic) , tested on Plasmodium falciparum: 7.70

###

# Test system: Mus musculus
# Assay Method Text: AUC (0 to t) in CD1 albino mouse at 50 mg/kg, po after 60 mins
# Type: ADME, organism-based, Plasma
# Design: time < 1 hr, dose 50 mg/kg, route oral
# Condition Description: in vivo, 1 h
Reported Property: AUC (ng·h/mL)
Give bare numbers, in ng·h/mL.

Consider Clc1cccc(C(Nc2ccnc3cc(Cl)ccc23)c2ccc(CN3CCCC3)cc2)c1 (racemic) . Its measured AUC is 725

###

Would you mind telling me the reported IC50 of each entry?
# System: Plasmodium falciparum
# Assay Method Text: Antimalarial activity after 24 hrs against chloroquine-resistant synchronous Plasmodium falciparum K1 infected human A+ erythrocytes by [3H]hypoxanthine uptake
# Assay type: functional, organism-based
Answers are plain numbers, in nM.

[
  {
    "Molecule": "COc1ccc2nc3cc(Cl)ccc3c(NC(c3ccc(Cl)cc3)c3ccc(CN4CCCC4)cc3)c2c1 (racemic)",
    "Target Under Test": "Plasmodium falciparum",
    "Number": 8
  },
  {
    "Molecule": "Clc1ccc(C(Nc2ccnc3cc(Cl)ccc23)c2ccc(CN3CCCC3)cc2)cc1 (racemic)",
    "Target Under Test": "Plasmodium falciparum",
    "Number": 9
  },
  {
    "Molecule": "Clc1cccc(C(Nc2ccnc3cc(Cl)ccc23)c2ccc(CN3CCCC3)cc2)c1 (racemic)",
    "Target Under Test": "Plasmodium falciparum",
    "Number": 65
  }
]

Next item in the queue.
Value of IC50 reported for the molecule FC(F)(F)c1ccc2c(NC(c3ccc(Cl)cc3)c3ccc(CN4CCCC4)cc3)ccnc2c1 (racemic) is 30

###

# Test system: Plasmodium chabaudi
# Assay Method Text: Antimalarial activity as reduced parasitaemia against Plasmodium chabaudi AS infected CD1 mice (Mus musculus) at 50 mg/kg/day peroral dose
# Assay type: functional
# Set-up: scale not given: the % may be the effect or the level left
# Condition Description: route oral
Reported Property: Activity (%)
Numbers only, in %.

Sample answers from the record:
[
  {
    "Molecule": "FC(F)(F)c1ccc2c(NC(c3ccc(Cl)cc3)c3ccc(CN4CCCC4)cc3)ccnc2c1 (racemic)",
    "Reported Property": "Activity",
    "Result Unit": "%",
    "Number": 99.6
  },
  {
    "Molecule": "Clc1ccccc1C(c1ccccc1)(c1ccccc1)n1ccnc1",
    "Reported Property": "Activity",
    "Result Unit": "%",
    "Number": 6
  },
  {
    "Molecule": "Clc1ccc(C(Nc2ccnc3cc(Cl)ccc23)(c2ccccc2)c2ccc(CN3CCCC3)cc2)cc1 (racemic)",
    "Reported Property": "Activity",
    "Result Unit": "%",
    "Number": 99.9
  },
  {
    "Molecule": "Clc1cccc(C(Nc2ccnc3cc(Cl)ccc23)c2ccc(CN3CCCC3)cc2)c1 (racemic)",
    "Reported Property": "Activity",
    "Result Unit": "%",
    "Number": 98
  },
  {
    "Molecule": "Clc1ccc(C(Nc2ccnc3cc(Cl)ccc23)c2ccc(CN3CCCC3)cc2)cc1 (racemic)",
    "Reported Property": "Activity",
    "Result Unit": "%",
    "Number": 99.5
  }
]

Quick batch: Activity for everything below.
1. COc1ccc2nc3cc(Cl)ccc3c(NC(c3ccc(Cl)cc3)c3ccc(CN4CCCC4)cc3)c2c1 (racemic)
2. Clc1ccc([C@](c2ccccc2)(c2ccc(CN3CCCC3)cc2)n2ccnc2)cc1

Key:
99.9
94.8

###

# Tested on: Plasmodium falciparum
# Assay Method Text: Antimalarial activity after 24 hrs against chloroquine-resistant synchronous Plasmodium falciparum K1 infected human A+ erythrocytes by [3H]hypoxanthine uptake
# Type: functional, organism-based
Task for the reader: assign each of the following compounds its reported IC50.
Answers are plain numbers, in nM.

[
  {
    "Compound": "COc1ccc2nccc(NC(c3ccc(Cl)cc3)c3ccc(CN4CCCC4)cc3)c2c1 (racemic)",
    "Result Unit": "nM",
    "IC50": 60
  },
  {
    "Compound": "Clc1ccc([C@](c2ccccc2)(c2ccc(CN3CCCC3)cc2)n2ccnc2)cc1",
    "Result Unit": "nM",
    "IC50": 5
  },
  {
    "Compound": "Clc1ccc(C(Nc2ccnc3cc(Cl)ccc23)(c2ccccc2)c2ccc(CN3CCCC3)cc2)cc1 (racemic)",
    "Result Unit": "nM",
    "IC50": 22
  }
]

Entry FC(F)(F)c1cc(NC(c2ccc(Cl)cc2)c2ccc(CN3CCCC3)cc2)c2cccc(C(F)(F)F)c2n1 (racemic) , IC50 reported as 450

###

# Assay Method Text: Ratio of drug level in blood to plasma of CD-COBS rat at 5 mg/kg, iv
# Assay type: ADME, organism-based
# Design: dose 5 mg/kg, route intravenous
# Condition Description: blood and plasma
Reported Property: blood plasma ratio
Numbers only.

For this compound ( Clc1cccc(C(Nc2ccnc3cc(Cl)ccc23)c2ccc(CN3CCCC3)cc2)c1 (racemic) ), measured blood plasma ratio is 1.1

###

# Assay Method Text: Apparent volume of distribution in CD-COBS rat at 5 mg/kg, iv
# Format: ADME, organism-based
# Design: dose 5 mg/kg, route intravenous
# Condition Description: in vivo
Reported Property: Vd (L/kg)
Answers are plain numbers, in L/kg.

[
  {
    "Molecule": "Clc1cccc(C(Nc2ccnc3cc(Cl)ccc23)c2ccc(CN3CCCC3)cc2)c1 (racemic)",
    "Vd (L/kg)": 48
  }
]

Now consider a different molecule.
The molecule identified as Clc1ccc(C(Nc2ccnc3cc(Cl)ccc23)c2ccc(CN3CCCC3)cc2)cc1 (racemic) registered its Vd at 40

###

# Assay Method Text: Cmax in CD-COBS rat at 50 mg/kg, po after 60 mins
# Type: ADME, organism-based
# Design: time < 1 hr, dose 50 mg/kg, route oral
# Condition Description: in vivo, read-out: AUC
Reported Property: Cmax (ng/mL)
Numbers only, in ng/mL.

What the record says about Clc1cccc(C(Nc2ccnc3cc(Cl)ccc23)c2ccc(CN3CCCC3)cc2)c1 (racemic) : Cmax is 180

###

# Assay Method Text: Liver concentration in CD1 albino mouse at 50 mg/kg, po after 180 mins
Reported Property: concentration at 3 h (ng/g)
Numbers only, in ng/g.

get_value(item= Clc1cccc(C(Nc2ccnc3cc(Cl)ccc23)c2ccc(CN3CCCC3)cc2)c1 (racemic) , readout=concentration at 3 h) returns 52200
